Test system: Drosophila melanogaster
method description: Insecticidal activity against first-instar larval stage of Drosophila melanogaster fed with artificial diet containing compound assessed as mortality at 8.3 umol/ml measured after 72 hr (reference value: 0%)
Assay type: functional
Decide using mortality alone. Strictly below 7%: Met. Equal to or above 7%: Not met.

Solved cases (3 shown):
C=C(C)[C@@H]1CC[C@]2(C)CCC(=O)[C@H](C)[C@]2(O)C1 [5ALPHA-HYDROXY-14-EUDESM-11-EN-3-ONE]
Met
C=C(C)[C@@H]1CC[C@@]2(C)CC[C@H](O)C(C)=C2C1 [3BETA-HYDROXY-CYPERONE]
Not met
C=C(C)[C@@H]1CC[C@]2(C)CCC(=O)C(C)=C2C1 [(-)-10-EPI-ALPHA-CYPERONE]
Met

Input C=C(C)[C@@H]1CC[C@@]2(C)CC[C@@H](O)C(C)=C2C1 [3ALPHA-HYDROXY-CYPERONE] ; condition: mortality strictly below 7%. Does it hold? Met

Request: CC1=C2C[C@H](C(C)(O)CO)CC[C@@]2(C)CCC1=O (stereo partly drawn) Not met

Request: C=C(C)[C@@H]1CC[C@]2(C)CCC(=O)C[C@]2(O)C1 [5-HYDROXY-14-NOREUDESM-11-EN-3-ONE] Met

Request: C=C(C)[C@@H]1CC[C@@]2(C)CCC(=O)C(C)=C2C1 Not met

Request: C=C(C)[C@@H]1CC[C@@]2(C)CCC(O)C(C)=C2C1 (mixture of isomers) Not met
